Entries and their measured viability at 10 µM follow.
- test.method.notes: Cell viability assay (MTS)
- Format: cell-based
- condition.summary: human, 10 µM, non-infected Huh7 cells, normalized to DMSO
Please state the value followed by its unit.

Some solved cases for reference:
[
  {
    "smiles.input": "O=[N+]([O-])c1ccc(Cn2ccc3c(NCc4cccc(Cl)c4)ncnc32)cc1",
    "viability at 10 µM": "69%"
  },
  {
    "smiles.input": "O=[N+]([O-])c1ccc(Cn2cnc3c(NCc4cccc(Cl)c4)ncnc32)cc1",
    "viability at 10 µM": "87%"
  },
  {
    "smiles.input": "CS(=O)(=O)c1ccc(Cn2ccc3c(NCc4cccc(Cl)c4)ncnc32)cc1",
    "viability at 10 µM": "39%"
  },
  {
    "smiles.input": "O=[N+]([O-])c1ccc(Cn2ccc3c(NCc4ccccc4)ncnc32)cc1",
    "viability at 10 µM": "42%"
  }
]

Shifting focus to the compound that follows.
Enquiry: Recorded viability at 10 µM of Clc1cccc(CNc2ncnc3c2ccn3Cc2ccc3ccccc3c2)c1 , please.
Return: 45%
